system: Saccharomyces cerevisiae BY4741 SeMeCo community; test: mean cell size (pixel area) (pixels); higher = larger cells; conditions: 10 µM; 24 h; SM minimal medium
Counter-ions that a name gives are not always drawn.
// mean cell size lookup, one value per entry
Just the number, please, no unit after it.

1) CC(C)COc1ccc(CNC(=O)N(Cc2ccc(F)cc2)C2CCN(C)CC2)cc1 = 12.4

Q: Under Saccharomyces cerevisiae BY4741 SeMeCo community: mean cell size value of CCOc1cc(N)c(Cl)cc1C(=O)NCC1CN(Cc2ccc(F)cc2)CCO1 (stereo not given) [Mosapride Citrate] ?
Ans: 12.5

Q: Under Saccharomyces cerevisiae BY4741 SeMeCo community: mean cell size value of "O=C(O)c1cc(-c2ccc(F)cc2F)ccc1O" ?
Ans: 13.1

Q: Under Saccharomyces cerevisiae BY4741 SeMeCo community: mean cell size value of CCOC(=O)c1ccc(N)cc1 [Benzocaine] ?
Ans: 12.5

Q: Under Saccharomyces cerevisiae BY4741 SeMeCo community: mean cell size value of Nc1c(CC(=O)O)cccc1C(=O)c1ccccc1 [Amfenac Sodium Monohydrate] ?
Ans: 12.8

Q: Under Saccharomyces cerevisiae BY4741 SeMeCo community: mean cell size value of CN(C)CCC=C1c2ccccc2C=Cc2ccccc21 [Cyclobenzaprine HCl] ?
Ans: 12.6

Q: Under Saccharomyces cerevisiae BY4741 SeMeCo community: mean cell size value of "O=c1[nH]c(=O)n([C@H]2C[C@H](O)[C@@H](CO)O2)cc1/C=C/Br" ?
Ans: 12.4

Q: Under Saccharomyces cerevisiae BY4741 SeMeCo community: mean cell size value of "CCS(=O)(=O)CCn1c([N+](=O)[O-])cnc1C" ?
Ans: 12.3

Q: Under Saccharomyces cerevisiae BY4741 SeMeCo community: mean cell size value of "COc1cc2c(cc1OC)[C@@H]1Cc3ccc(OC)c(OC)c3CN1CC2" ?
Ans: 12.5

Q: Under Saccharomyces cerevisiae BY4741 SeMeCo community: mean cell size value of Nc1ccc2cc3ccc(N)cc3nc2c1 [Proflavine Hemisulfate] ?
Ans: 12.1

Q: Under Saccharomyces cerevisiae BY4741 SeMeCo community: mean cell size value of "CC(C)c1nc(N(C)S(C)(=O)=O)nc(-c2ccc(F)cc2)c1/C=C/[C@@H](O)C[C@@H](O)CC(=O)O" ?
Ans: 11.6

Q: Under Saccharomyces cerevisiae BY4741 SeMeCo community: mean cell size value of CCCCN1CCCCC1C(=O)Nc1c(C)cccc1C (stereo not given) [Bupivacaine HCl] ?
Ans: 12.5

Q: Under Saccharomyces cerevisiae BY4741 SeMeCo community: mean cell size value of "CO/N=C(\C(=O)N[C@@H]1C(=O)N2C(C(=O)OCOC(=O)C(C)(C)C)=C(/C=C\c3scnc3C)CS[C@H]12)c1csc(N)n1" ?
Ans: 12.3

Q: Under Saccharomyces cerevisiae BY4741 SeMeCo community: mean cell size value of CCCCC(=O)O[C@H]1CC[C@H]2[C@@H]3CCc4cc(O)ccc4[C@H]3CC[C@]12C [Estradiol valerate] ?
Ans: 12.4

Q: Under Saccharomyces cerevisiae BY4741 SeMeCo community: mean cell size value of CC1=C(C(=O)O)N2C(=O)[C@@H](NC(=O)[C@H](N)c3ccc(O)cc3)[C@H]2SC1 [Cefadroxil hydrate] ?
Ans: 12.1

Q: Under Saccharomyces cerevisiae BY4741 SeMeCo community: mean cell size value of "COC(=O)Nc1nc2cc(C(=O)c3ccccc3)ccc2[nH]1" ?
Ans: 12.1

Q: Under Saccharomyces cerevisiae BY4741 SeMeCo community: mean cell size value of Cc1onc(-c2c(Cl)cccc2Cl)c1C(=O)N[C@@H]1C(=O)N2[C@@H]1SC(C)(C)[C@@H]2C(=O)O [Dicloxacillin Sodium] ?
Ans: 12.4

Q: Under Saccharomyces cerevisiae BY4741 SeMeCo community: mean cell size value of "CCCCCCCCCC(=O)N[C@@H](Cc1c[nH]c2ccccc12)C(=O)N[C@H](CC(N)=O)C(=O)N[C@@H](CC(=O)O)C(=O)N[C@@H]1C(=O)NCC(=O)N[C@@H](CCCN)C(=O)N[C@@H](CC(=O)O)C(=O)N[C@H](C)C(=O)N[C@@H](CC(=O)O)C(=O)NCC(=O)N[C@H](CO)C(=O)N[C@@H]([C@H](C)CC(=O)O)C(=O)N[C@@H](CC(=O)c2ccccc2N)C(=O)O[C@@H]1C" ?
Ans: 12.2

Q: Under Saccharomyces cerevisiae BY4741 SeMeCo community: mean cell size value of CCCN[C@H]1CCc2nc(N)sc2C1 [Pramipexole dihydrochloride] ?
Ans: 12.3

* * *

tested on: Saccharomyces cerevisiae BY4741 SeMeCo community; test: z-score of prototroph abundance vs DMSO median; higher = larger share of this subpopulation than in DMSO controls; conditions: 10 µM; 24 h; SM minimal medium; subpopulation (auxotrophy): Prototroph
Structures can show the parent of a compound that is named as a salt.
reportedProperty: z-score of prototroph abundance

1. CC[C@H]1OC(=O)[C@H](C)[C@@H](O[C@H]2C[C@@](C)(OC)[C@@H](O)[C@H](C)O2)[C@H](C)[C@@H](O[C@@H]2O[C@H](C)C[C@H](N(C)C)[C@H]2O)[C@](C)(O)C[C@@H](C)/C(=N\OCOCCOC)[C@H](C)[C@@H](O)[C@]1(C)O [Roxithromycin] = -0.63
2. C[C@H]1COc2c(C3(N)CC3)c(F)cc3c(=O)c(C(=O)O)cn1c23 [Pazufloxacin mesylate] = -0.35

Q: What does the data say about its z-score of prototroph abundance? Entry: OCCN1CCN(CCCN2c3ccccc3Sc3ccc(C(F)(F)F)cc32)CC1 [Fluphenazine dihydrochloride]
Ans: -0.57

Q: What does the data say about its z-score of prototroph abundance? Entry: CO/N=C(\C(=O)N[C@@H]1C(=O)N2C(C(=O)O)=C(CSc3nnnn3C)CS[C@H]12)c1csc(N)n1 [Cefmenoxime hydrochloride]
Ans: -0.33

* * *

system: Saccharomyces cerevisiae BY4741 SeMeCo community; assay: z-score of subpopulation abundance vs DMSO median, subpopulation auxotrophic for HLM; higher = larger share of this subpopulation than in DMSO controls; conditions: 10 µM; 24 h; SM minimal medium; subpopulation (auxotrophy): HLM
Counter-ions that a name gives are not always drawn.
Assign class by z-score of subpopulation abundance: not lower than -0.5 means label 1; lower than -0.5 means label 0.

Solved cases below.
1. O=C(Cn1ccnc1[N+](=O)[O-])NCc1ccccc1 = label 0
2. NC[C@H]1O[C@H](O[C@H]2[C@H](O)[C@@H](O[C@H]3O[C@H](CO)[C@@H](O)[C@H](N)[C@H]3O)[C@H](N)C[C@@H]2N)[C@H](O)[C@@H](O)[C@@H]1O [Kanamycin sulfate] = label 1
3. CN(C)[C@@H]1C(=O)C(C(N)=O)=C(O)[C@@]2(O)C(=O)C3=C(O)c4c(O)ccc(Cl)c4[C@@H](O)[C@H]3C[C@@H]12 [Demeclocycline HCl] = label 1
4. C[C@H]1O[C@@H](O[C@H]2[C@@H](O)C[C@H](O[C@H]3[C@@H](O)C[C@H](O[C@H]4CC[C@@]5(C)[C@H](CC[C@@H]6[C@@H]5C[C@@H](O)[C@]5(C)[C@@H](C7=CC(=O)OC7)CC[C@]65O)C4)O[C@@H]3C)O[C@@H]2C)C[C@H](O)[C@@H]1O = label 0
5. N#Cc1ccc2[nH]cc(CCCCN3CCN(c4ccc5oc(C(N)=O)cc5c4)CC3)c2c1 [Vilazodone HCl] = label 1

Q: # bool: z-score of subpopulation abundance of "C#C[C@]1(O)CC[C@H]2[C@@H]3CCc4cc(O)ccc4[C@H]3CC[C@@]21C" >= -0.5
Ans: label 0

Q: # bool: z-score of subpopulation abundance of CN1CCN(c2cc3c(cc2F)c(=O)c(C(=O)O)cn3-c2ccc(F)cc2)CC1 [Difloxacin hydrochloride] >= -0.5
Ans: label 1

Q: # bool: z-score of subpopulation abundance of "O=C(O)CCNC(=O)c1ccccc1" >= -0.5
Ans: label 0

Q: # bool: z-score of subpopulation abundance of C[C@@H](NCCCc1cccc(C(F)(F)F)c1)c1cccc2ccccc12 [Cinacalcet HCl] >= -0.5
Ans: label 1

Q: # bool: z-score of subpopulation abundance of "Nc1nc(N)nc(-c2cc(Cl)ccc2Cl)n1" >= -0.5
Ans: label 1

* * *

test system: Saccharomyces cerevisiae BY4741 SeMeCo community; test: z-score of subpopulation abundance vs DMSO median, subpopulation auxotrophic for HLUM; higher = larger share of this subpopulation than in DMSO controls; details: 10 µM; 24 h; SM minimal medium; subpopulation (auxotrophy): HLUM
Where a name gives a salt, the structure may show the parent alone.
Assign class by z-score of subpopulation abundance: not lower than 0.8 means TRUE; lower than 0.8 means FALSE.

Solved cases below.
1. Nc1ccc(S(=O)(=O)Nc2ncccn2)cc1 [Sulfadiazine] = TRUE
2. CCCN(CCC)CCc1cccc2c1CC(=O)N2 [Ropinirole HCl] = FALSE
3. O=c1[nH]c(=O)n([C@H]2C[C@H](O)[C@@H](CO)O2)cc1I [Idoxuridine] = FALSE
4. CCCCCOc1ccccc1/C(=C\SC)n1ccnc1 [Neticonazole Hydrochloride] = TRUE
5. CN1CCOC(c2ccccc2)c2ccccc2C1 (centres undefined) [Nefopam HCl] = FALSE

Q: # bool: z-score of subpopulation abundance of NS(=O)(=O)Cc1noc2ccccc12 [Zonisamide] >= 0.8
Ans: TRUE

Q: # bool: z-score of subpopulation abundance of Cc1onc(-c2c(F)cccc2Cl)c1C(=O)N[C@@H]1C(=O)N2[C@@H]1SC(C)(C)[C@@H]2C(=O)O [Flucloxacillin sodium] >= 0.8
Ans: FALSE

Q: # bool: z-score of subpopulation abundance of CC1(C)CC[C@]2(C(=O)O)CC[C@]3(C)C(=CC[C@@H]4[C@@]5(C)CC[C@H](O)C(C)(C)[C@@H]5CC[C@]43C)[C@@H]2C1 [Oleanolic Acid] >= 0.8
Ans: FALSE
